Documented CD73 endocytosis ratio %, 480 minutes across a set of binders
Target entity: T1, human CD73 on Calu6 cells (human, UniProt P21589 27-549)
T1 sequence (looked up): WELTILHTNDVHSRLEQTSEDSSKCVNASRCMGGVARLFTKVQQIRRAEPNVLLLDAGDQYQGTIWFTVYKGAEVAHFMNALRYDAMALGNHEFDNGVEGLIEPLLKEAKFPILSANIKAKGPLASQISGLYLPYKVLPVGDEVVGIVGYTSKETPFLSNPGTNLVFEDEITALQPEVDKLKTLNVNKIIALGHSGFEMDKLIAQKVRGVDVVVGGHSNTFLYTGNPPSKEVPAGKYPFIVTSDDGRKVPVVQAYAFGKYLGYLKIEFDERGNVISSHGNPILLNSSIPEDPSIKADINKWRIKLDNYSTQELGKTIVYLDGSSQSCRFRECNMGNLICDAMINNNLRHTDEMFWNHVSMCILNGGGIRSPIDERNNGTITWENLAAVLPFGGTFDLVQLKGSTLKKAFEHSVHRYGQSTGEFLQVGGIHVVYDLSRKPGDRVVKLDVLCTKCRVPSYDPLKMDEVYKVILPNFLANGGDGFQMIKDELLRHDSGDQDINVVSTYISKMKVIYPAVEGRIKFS
Method summary: cell-based or functional assay
Enter your answer as a number in %; do not include the unit.

Lab note: measured CD73 endocytosis ratio %, 480 minutes of CD73 antibody 2H2 (antibody, V domains shown, also called Clone 2H2) VH: EVKLVESGGGLVQPGGSLKLSCATSGFTFSDYYMYWVRQTPEKRLEWVAYISNVGGSTYYPDTVKGRFTISRDNAKNTLYLQMSRLKSEDTAMYYCARGDGYYGYYFDVWGAGTTVTVSS VL: ENVLTQSPAIMSASPGEKVTMTCSASSSVSYMHWYQQKSGTSPKRWIYDTSKLASGVPTRFSGSGSGTSFSLTISSMEAEDAATYYCQQWSSNPYTFGGGTKLEIK was 49.3

Entry under test: CD73 antibody 22C12 (antibody, V domains shown, Mouse variable regions on human IgG heavy chain constant region and human kappa constant region (chimeric IgG); also called Clone 22C12; mAb22C12) VH: QVQFQQSGAELARPGASVKLSCKASGYTFTGYWIQWVKQRPGQGLEWIGAIYPGDDDTRYTQKFKGRATLTADTSSSTAYMQLSSLASEDSAVYYCARGNWDDWDFDVWGAGTTVTVSS VL: DIQMTQTTSSLSASLGDRVTISCRASQDISNYLNWYQQKPDGTVKLLIHYTSRLHSGVPSRFSGSGSGTDYSLTISNLEQEDIATYFCQQGDTLPWTFGGGTKLEIK . Its CD73 endocytosis ratio %, 480 minutes was 13.2

Form: binder = CD73 antibody 14E4 (antibody, V domains shown, Mouse variable regions on human IgG heavy chain constant region and human kappa constant region (chimeric IgG); also called Clone 14E4) VH: QVQLQQSGPELVKPGASVKISCKASGYIFTNYYIHWVKQRPGQGLEWIGWIFPGSGNTKYSEKFKDKATLTADTSSSTAYMQLSSLTSEDSAVYFCAGLSDWGQGTTLTVSS VL: DIQMTQSPSSLSASLGERVSLTCRASQDIGDRLIWLQQEPAGTFKRLIYATSSLDSGVPKRFSGSRSGSDYSLTISSLESEDFVDYYCLQYASSPWTFGGGTKLEIK ; CD73 endocytosis ratio %, 480 minutes = 2.6
